- PROTOCOL DESCRIPTION: Ratio of drug level in brain to plasma in Sprague-Dawley rat
- Format: ADME
- CONDITION SUMMARY: read-out: BPR
OBSERVABLE: Kp
Returns: the value as a bare number; no unit string appended.

*Q* I'd like to know its Kp. The molecule in question is CC(=O)N1CCN(c2nc(NC(C)(C)Cc3ccc(Cl)cc3)c3c(n2)C(=O)N(C(C)C)C3)CC1
*A* 0.02

---

- PROTOCOL DESCRIPTION: Cmax in rat at […], sc
- Assay type: ADME, organism-based
- Design: dose 5.9 umol/kg, route subcutaneous
- CONDITION SUMMARY: in vivo
OBSERVABLE: Cmax (µM)
Report only the number, with the unit µM understood.

*Q* I'd like to know its Cmax. The molecule in question is CC(=O)N1CCN(c2nc(NC(C)(C)Cc3ccc(Cl)cc3)c3c(n2)C(=O)N(C(C)C)C3)CC1
*A* 1

---

- PROTOCOL DESCRIPTION: Clearance in dog hepatocytes assessed per 10^6 cells
- Type: ADME, cell-based, Canis lupus familiaris, Hepatocyte
- CONDITION SUMMARY: read-out: CLH
OBSERVABLE: hepatocyte CLint (µL/min/1e6 cells)
Report only the number, with the unit µL/min/1e6 cells understood.

*Q* I'd like to know its hepatocyte CLint. The compound in question is CCOc1ccc([C@@H](C)Nc2nc(N3CCN(C(C)=O)CC3)nc3c2CN(C(C)C)C3=O)cc1
*A* 2.5

---

- PROTOCOL DESCRIPTION: AUC in rat at 11 umol/kg, iv
- Type: ADME, organism-based
- CONDITION SUMMARY: plasma
OBSERVABLE: AUC (µM·h)
Report only the number, with the unit µM·h understood.

*Q* I'd like to know its AUC. The molecule in question is CCOc1ccc([C@@H](C)Nc2nc(N3CCN(C(C)=O)CC3)nc3c2CN(C(C)C)C3=O)cc1
*A* 8.05

---

- PROTOCOL DESCRIPTION: Apparent permeability from apical to basal side of human Caco2 cells at 10 uM
- Format: ADME, cell-based
- CONDITION SUMMARY: Caco-2
OBSERVABLE: Papp A→B at 10 µM (×10⁻⁶ cm/s)
Report only the number, with the unit ×10⁻⁶ cm/s understood.

*Q* I'd like to know its Papp A→B at 10 µM. The compound in question is CC(=O)N1CCN(c2nc(NCc3cnc4ccccc4c3)c3c(n2)C(=O)N(C(C)C)C3)CC1
*A* 0.1

*Q* I'd like to know its Papp A→B at 10 µM. The compound in question is CCOc1ccc([C@@H](C)Nc2nc(N3CCN(C(C)=O)CC3)nc3c2CN(C(C)C)C3=O)cc1
*A* 2.4

*Q* I'd like to know its Papp A→B at 10 µM. The compound in question is CC(=O)N1CCN(c2nc(N[C@H](C)c3ccc(OC(F)(F)F)cc3)c3c(n2)C(=O)N(C(C)C)C3)CC1
*A* 4.5

*Q* I'd like to know its Papp A→B at 10 µM. The compound in question is CCOc1ccc([C@@H](C)Nc2nc(N3CCN(C(C)=O)CC3)nc3c2CN(C(C)C)C3=O)cc1F
*A* 0.8

*Q* I'd like to know its Papp A→B at 10 µM. The compound in question is CCOc1ccc([C@H](Nc2nc(N3CCN(C(C)=O)CC3)nc3c2CN(C(C)C)C3=O)C(F)(F)F)cc1
*A* 2

*Q* I'd like to know its Papp A→B at 10 µM. The compound in question is CC(=O)N1CCN(c2nc(NCc3cc4ccccc4cn3)c3c(n2)C(=O)N(C(C)C)C3)CC1
*A* 0.6

*Q* I'd like to know its Papp A→B at 10 µM. The compound in question is CC(=O)N1CCN(c2nc3c(c(N(C)Cc4cc5ccccc5cn4)n2)CN(C(C)C)C3=O)CC1
*A* 2.9

*Q* I'd like to know its Papp A→B at 10 µM. The compound in question is CC(=O)N1CCN(c2nc(NCc3ccc(OC(F)(F)F)cc3)c3c(n2)C(=O)N(C(C)C)C3)CC1
*A* 2.9

---

- PROTOCOL DESCRIPTION: Drug excretion in iv dosed rat faces
- Type: ADME, organism-based, Feces
- CONDITION SUMMARY: faeces, read-out: Drug excretion
OBSERVABLE: dose excreted

*Q* I'd like to know its dose excreted. The molecule in question is CCOc1ccc([C@@H](C)Nc2nc(N3CCN(C(C)=O)CC3)nc3c2CN(C(C)C)C3=O)cc1
*A* > 15%

---

- PROTOCOL DESCRIPTION: Oral bioavailability in rat at 58 umol/kg
- Type: ADME, organism-based
- CONDITION SUMMARY: in vivo
OBSERVABLE: bioavailability (%)
Report only the number, with the unit % understood.

*Q* I'd like to know its bioavailability. The compound in question is CCOc1ccc([C@@H](C)Nc2nc(N3CCN(C(C)=O)CC3)nc3c2CN(C(C)C)C3=O)cc1
*A* 62

---

- PROTOCOL DESCRIPTION: AUC in rat at […], iv
- Format: ADME, organism-based
- CONDITION SUMMARY: plasma
OBSERVABLE: AUC (µM·h)
Report only the number, with the unit µM·h understood.

*Q* I'd like to know its AUC. The molecule in question is CC(=O)N1CCN(c2nc(NC(C)(C)Cc3ccc(Cl)cc3)c3c(n2)C(=O)N(C(C)C)C3)CC1
*A* 0.7

*Q* I'd like to know its AUC. The molecule in question is CCOc1ccc([C@@H](C)Nc2nc(N3CCN(C(C)=O)CC3)nc3c2CN(C(C)C)C3=O)cc1
*A* 0.4

---

- PROTOCOL DESCRIPTION: Oral bioavailability in rat at 12 umol/kg
- Assay type: ADME, organism-based
- CONDITION SUMMARY: in vivo
OBSERVABLE: bioavailability (%)
Report only the number, with the unit % understood.

*Q* I'd like to know its bioavailability. The compound in question is CCOc1ccc([C@@H](C)Nc2nc(N3CCN(C(C)=O)CC3)nc3c2CN(C(C)C)C3=O)cc1
*A* 16

---

- PROTOCOL DESCRIPTION: Clearance in rat at 11 umol/kg, iv
- Type: ADME, organism-based
- CONDITION SUMMARY: in vivo
OBSERVABLE: clearance (mL/min/kg)
Report only the number, with the unit mL/min/kg understood.

*Q* I'd like to know its clearance. The molecule in question is CCOc1ccc([C@@H](C)Nc2nc(N3CCN(C(C)=O)CC3)nc3c2CN(C(C)C)C3=O)cc1
*A* 22

---

- PROTOCOL DESCRIPTION: Clearance in rat at […], iv
- Format: ADME, organism-based
- CONDITION SUMMARY: in vivo
OBSERVABLE: clearance (mL/min/kg)
Report only the number, with the unit mL/min/kg understood.

*Q* I'd like to know its clearance. The molecule in question is CCOc1ccc([C@@H](C)Nc2nc(N3CCN(C(C)=O)CC3)nc3c2CN(C(C)C)C3=O)cc1
*A* 88

*Q* I'd like to know its clearance. The molecule in question is CC(=O)N1CCN(c2nc(NC(C)(C)Cc3ccc(Cl)cc3)c3c(n2)C(=O)N(C(C)C)C3)CC1
*A* 54

---

- PROTOCOL DESCRIPTION: Clearance in dog at […], iv
- Type: ADME, organism-based, Canis lupus familiaris
- CONDITION SUMMARY: in vivo
OBSERVABLE: clearance (mL/min/kg)
Report only the number, with the unit mL/min/kg understood.

*Q* I'd like to know its clearance. The compound in question is CCOc1ccc([C@@H](C)Nc2nc(N3CCN(C(C)=O)CC3)nc3c2CN(C(C)C)C3=O)cc1
*A* 8

---

- PROTOCOL DESCRIPTION: AUC in rat at […], sc
- Assay type: ADME, organism-based
- CONDITION SUMMARY: plasma
OBSERVABLE: AUC (nM·h)
Report only the number, with the unit nM·h understood.

*Q* I'd like to know its AUC. The molecule in question is CC(=O)N1CCN(c2nc(NC(C)(C)Cc3ccc(Cl)cc3)c3c(n2)C(=O)N(C(C)C)C3)CC1
*A* 2800

---

- PROTOCOL DESCRIPTION: Half life in rat at […], iv
- Type: ADME, organism-based
- CONDITION SUMMARY: in vivo
OBSERVABLE: half-life

*Q* I'd like to know its half-life. The compound in question is CC(=O)N1CCN(c2nc(NC(C)(C)Cc3ccc(Cl)cc3)c3c(n2)C(=O)N(C(C)C)C3)CC1
*A* 54 min

*Q* I'd like to know its half-life. The compound in question is CCOc1ccc([C@@H](C)Nc2nc(N3CCN(C(C)=O)CC3)nc3c2CN(C(C)C)C3=O)cc1
*A* 30 min

Where these numbers come from: ChEMBL document CHEMBL2010731
